# Test system: E57 (patient-derived glioblastoma stem cells of mesenchymal subtype)
# assay_comment: surviving fraction (nuclei count normalised to DMSO); higher = more cells surviving (less toxic)
# protocol_conditions: 4.1 nM; exposure time: 72 h
Counter-ions that a name gives are not always drawn.
Assign label 1 to entries whose surviving fraction meets or exceeds 1; assign label 0 to the rest.

// inclusive: surviving fraction at least 1? input: C=C[C@H]1CN2CC[C@H]1C[C@@H]2[C@@H](O)c1ccnc2ccc(OC)cc12 [Quinidine hydrochloride monohydrate]
label 1

// inclusive: surviving fraction at least 1? input: CC(C)C[C@H](NC(=O)CNC(=O)c1cc(Cl)ccc1Cl)B(O)O [Ixazomib]
label 0

* * *

# Tested on: E28 (patient-derived glioblastoma stem cells of classical subtype)
# assay_comment: phenotypic distance (Euclidean, principal components) from DMSO controls (arbitrary units); higher = stronger morphological change
# protocol_conditions: 12.3 nM; exposure time: 72 h
Counter-ions that a name gives are not always drawn.
Item-by-item account of phenotypic distance
Form field (numeric): enter value without unit.

See these solved cases before continuing.
CC1=C(/C=C/C(C)=C/C=C/C(C)=C/C(=O)Nc2ccc(O)cc2)C(C)(C)CCC1 [Retinoic acid p-hydroxyanilide] = 0.734
CC(NCCC(c1ccccc1)c1ccccc1)c1ccccc1 (centres undefined) [Fendiline hydrochloride] = 0.605

Identify measured phenotypic distance associated with `CN1C(=O)OC(C)(C)C1=O`
0.657

Identify measured phenotypic distance associated with Cc1cc(/C=C/c2ccc3cc(N(C)C)ccc3[n+]2C)c(C)n1-c1ccccc1 [Pyrvinium pamoate]
1.67

Identify measured phenotypic distance associated with CC(C)(Oc1ccc(C2CC2(Cl)Cl)cc1)C(=O)O (centres undefined) [Ciprofibrate]
0.813

Identify measured phenotypic distance associated with `C#C[C@]1(O)CC[C@H]2[C@@H]3CCc4cc(OC5CCCC5)ccc4[C@H]3CC[C@@]21C`
2.42

Identify measured phenotypic distance associated with CC(C)C(=O)OCC(=O)[C@@]12O[C@H](C3CCCCC3)O[C@@H]1C[C@H]1[C@@H]3CCC4=CC(=O)C=C[C@]4(C)[C@H]3[C@@H](O)C[C@@]12C [Ciclesonide]
0.863

Identify measured phenotypic distance associated with `CC(=O)OC[C@H]1O[C@@H]([S-])[C@H](OC(C)=O)[C@@H](OC(C)=O)[C@@H]1OC(C)=O.CCP(CC)CC.[Au+]`
0.679

Identify measured phenotypic distance associated with C=CC(=O)Nc1cc(Nc2nccc(-c3cn(C)c4ccccc34)n2)c(OC)cc1N(C)CCN(C)C [Osimertinib mesylate]
0.684

* * *

Item-by-item account of surviving fraction
# System: E13 (patient-derived glioblastoma stem cells of classical subtype)
# assay_comment: surviving fraction (nuclei count normalised to DMSO); higher = more cells surviving (less toxic)
# protocol_conditions: 37 nM; exposure time: 72 h
Structures can show the parent of a compound that is named as a salt.
Form field (numeric): enter value without unit.

Recall the reported surviving fraction of `Cc1[nH]nc(C(F)(F)F)c1Cc1sc2c(c1C(=O)N1C[C@](C)(O)CO1)c(=O)n(C)c(=O)n2C(C)C` on E13 and write it down.
0.902

Recall the reported surviving fraction of CCCCC(CC)CNC(=N)NC(=N)NCCCCCCNC(=N)NC(=N)NCC(CC)CCCC (stereo not given) [Alexidine dihydrochloride] on E13 and write it down.
0.978

Recall the reported surviving fraction of `O=C1CCc2cc(OCCCCc3nnnn3C3CCCCC3)ccc2N1` on E13 and write it down.
1.01

Recall the reported surviving fraction of CN(C)CCN(Cc1ccc(Cl)cc1)c1ccccn1 [Chloropyramine hydrochloride] on E13 and write it down.
0.988

Recall the reported surviving fraction of `C[C@@H](Oc1cc(-c2cnn(C3CCNCC3)c2)cnc1N)c1c(Cl)ccc(F)c1Cl` on E13 and write it down.
0.972

Recall the reported surviving fraction of N=c1ccn2c(n1)O[C@H]1[C@H](O)[C@@H](CO)O[C@H]12 [Ancitabine hydrochloride] on E13 and write it down.
0.884

Recall the reported surviving fraction of CNCCc1ccccn1 [Betahistine mesylate] on E13 and write it down.
1.01

Recall the reported surviving fraction of `C[C@H](Cc1cc2c(c(C(N)=O)c1)N(CCCO)CC2)NCCOc1ccccc1OCC(F)(F)F` on E13 and write it down.
0.914

Recall the reported surviving fraction of `COc1cc2c(NC3CCN(C(C)C)CC3)nc(C3CCCCC3)nc2cc1OCCCN1CCCC1` on E13 and write it down.
0.987

Recall the reported surviving fraction of CCC1=C[C@@H]2CN(C1)Cc1c([nH]c3ccccc13)[C@@](C(=O)OC)(c1cc3c(cc1OC)N(C)[C@H]1[C@@](O)(C(=O)OC)[C@H](OC(C)=O)[C@]4(CC)C=CCN5CC[C@]31[C@@H]54)C2 [Vinorelbine Tartrate] on E13 and write it down.
0.916

Recall the reported surviving fraction of C[C@@H](O[C@H]1OCCN(Cc2n[nH]c(=O)[nH]2)[C@H]1c1ccc(F)cc1)c1cc(C(F)(F)F)cc(C(F)(F)F)c1 [Aprepitant] on E13 and write it down.
0.98

Recall the reported surviving fraction of COc1cc2c[n+](C)c3c4cc5c(cc4ccc3c2cc1OC)OCO5 [Nitidine chloride] on E13 and write it down.
1.01

Recall the reported surviving fraction of `CCOC(=O)C1=C(C)NC(C)=C(C(=O)OCC)C1c1c(F)c(F)c(F)c(F)c1F` on E13 and write it down.
0.915

Recall the reported surviving fraction of `C[C@H](NC(=O)[C@@H](O)c1cc(F)cc(F)c1)C(=O)N[C@@H]1C(=O)N(C)c2ccccc2-c2ccccc21` on E13 and write it down.
1.02

Recall the reported surviving fraction of Clc1ccc(C(Cn2ccnc2)OCc2ccsc2Cl)c(Cl)c1 (stereo not given) on E13 and write it down.
1.02

* * *

# Tested on: E28
# assay_comment: surviving fraction (nuclei count normalised to DMSO); higher = more cells surviving (less toxic)
# protocol_conditions: 37 nM; exposure time: 72 h
Counter-ions that a name gives are not always drawn.
Assign Satisfied to entries whose surviving fraction meets or exceeds 1; assign Not satisfied to the rest.

Nc1ccc(-c2ccc3ncc4ccc(=O)n(-c5cccc(C(F)(F)F)c5)c4c3c2)cn1 [Torin2] = Not satisfied
COc1c(N2CCNC(C)C2)c(F)cc2c(=O)c(C(=O)O)cn(C3CC3)c12 (stereo not drawn) [Gatifloxacin] = Not satisfied
Clc1ccc(COC(Cn2ccnc2)c2ccc(Cl)cc2Cl)c(Cl)c1 (stereo not drawn) [Miconazole] = Satisfied
C/C(=C\c1csc(C)n1)[C@@H]1C[C@@H]2O[C@]2(C)CCC[C@H](C)[C@H](O)[C@@H](C)C(=O)C(C)(C)[C@@H](O)CC(=O)N1 [Ixabepilone] = Not satisfied
CO[C@H]1C(=O)[C@]2(C)[C@@H](OC)C[C@H]3OC[C@@]3(OC(C)=O)[C@H]2[C@H](OC(=O)c2ccccc2)[C@]2(O)C[C@H](OC(=O)[C@H](O)[C@@H](NC(=O)OC(C)(C)C)c3ccccc3)C(C)=C1C2(C)C [Cabazitaxel] = Not satisfied
CC(=O)CC(c1ccc([N+](=O)[O-])cc1)c1c(O)c2ccccc2oc1=O (stereo not drawn) [Acenocoumarol] = Not satisfied
CCCCC1C(=O)N(c2ccccc2)N(c2ccc(O)cc2)C1=O (stereo not drawn) [Oxyphenbutazone] = Satisfied
COc1nc(C)nc(Cl)c1NC1=NCCN1 [Moxonidine] = Not satisfied
Cc1cc(Nc2cc(CN3CCOCC3)c3nc(C)c(Cc4ccc(Cl)cc4F)n3n2)n[nH]1 [Gandotinib] = Satisfied
O=C(Nc1ccc([N+](=O)[O-])cc1Cl)c1cc(Cl)ccc1O [Niclosamide] = Not satisfied

Note: attention shifts to another entry.
// inclusive: surviving fraction at least 1? input: NC1CCN(c2nc3c(cc2F)c(=O)c(C(=O)O)cn3-c2ccc(F)cc2F)C1 (stereo not drawn) [Tosufloxacin hydrochloride]
Not satisfied

* * *

# Test system: E31 (patient-derived glioblastoma stem cells of proneural subtype)
# assay_comment: phenotypic distance (Euclidean, principal components) from DMSO controls (arbitrary units); higher = stronger morphological change
# protocol_conditions: 37 nM; exposure time: 72 h
Where a name gives a salt, the structure may show the parent alone.
Item-by-item account of phenotypic distance
Form field (numeric): enter value without unit.

CC(C)(Oc1ccc(C2CC2(Cl)Cl)cc1)C(=O)O (centres undefined) [Ciprofibrate] = 0.691
CC(C)NCC(O)c1cc(O)cc(O)c1 (centres undefined) [Metaproterenol sulfate, orciprenaline sulfate] = 0.562
CCCCCC[C@H]1C(=O)O[C@H](C)[C@H](NC(=O)c2cccc(NC=O)c2O)C(=O)O[C@@H](C)[C@@H]1OC(=O)CC(C)C [Antimycin A] = 1.68

Identify measured phenotypic distance associated with `O=C1CC[C@@H](C(=O)N2CSC[C@H]2C(=O)O)N1`
0.777

* * *

Item-by-item account of surviving fraction
# Tested on: E31
# assay_comment: surviving fraction (nuclei count normalised to DMSO); higher = more cells surviving (less toxic)
# protocol_conditions: 111.1 nM; exposure time: 72 h
Where a name gives a salt, the structure may show the parent alone.
Form field (numeric): enter value without unit.

N=c1ccn2c(n1)O[C@H]1[C@H](O)[C@@H](CO)O[C@H]12 [Ancitabine hydrochloride] = 0.594
O=C(/C=C\n1cnc(-c2cc(C(F)(F)F)cc(C(F)(F)F)c2)n1)NNc1cnccn1 [Selinexor] = 0.38
C/C(=C\c1csc(C)n1)[C@@H]1C[C@@H]2O[C@]2(C)CCC[C@H](C)[C@H](O)[C@@H](C)C(=O)C(C)(C)[C@@H](O)CC(=O)N1 [Ixabepilone] = 0.149
Cc1nc2ccccn2c(=O)c1CCN1CCC(C(=O)c2ccc(F)cc2)CC1 [Pirenperone] = 0.874

Identify measured surviving fraction associated with CC1CNc2c(cccc2S(=O)(=O)N[C@@H](CCCNC(=N)N)C(=O)N2CC[C@@H](C)C[C@@H]2C(=O)O)C1 (stereo partly specified) [Argatroban]
0.95

Identify measured surviving fraction associated with CCCCC(CC)CNC(=N)NC(=N)NCCCCCCNC(=N)NC(=N)NCC(CC)CCCC (stereo unspecified) [Alexidine dihydrochloride]
1.02
